# assay_protocol: Toxicity liver stage against HepG2, at 10uM
# Assay type: cell-based
# Parameters: test concentration 10 uM, cell line HepG2-A16-CD81EGFP
# reported_conditions: human, HepG2-A16-CD81EGFP cells; read-out: INHIBITION
result_type: cytotoxicity at 10 µM (%)
Kindly answer with a numeric value in %, unit omitted.

In the examples that follow, each entry is paired with its recorded cytotoxicity at 10 µM.
COc1nn(C)c2c1CCCN(C(=O)c1cccc3cccnc13)C2 : -104
Cn1c2ccc(F)cc2c2ncn(CCN3CCOCC3)c(=O)c21 : 18.2
COc1nc2c(cc1C(=O)NCc1noc(Cc3cccs3)n1)CCC2 : -6.36
Cc1ccc(C)c(CN(CC(N)=O)C(C)C)c1 : 0.477

Lab book: cytotoxicity at 10 µM of "CC(C)COCCC(=O)Nc1cccnc1-n1cncn1" noted as 1.28

Lab book: cytotoxicity at 10 µM of "CNC(=O)c1nc2c(s1)CCN(C(=O)c1cccnc1)CC2" noted as 6

Lab book: cytotoxicity at 10 µM of "Fc1ccccc1CC1CCN(Cc2cscn2)CC1" noted as -5.71

Lab book: cytotoxicity at 10 µM of "CCOc1ccc(Cl)c(C(=O)N2CCCSCC2)n1" noted as -4.03

Lab book: cytotoxicity at 10 µM of OCC1CCCN1c1cc(NCCNc2cccnn2)ncn1 (configuration not stated) noted as 18.5

---

# assay_protocol: Toxicity liver stage against HepG2, at 10uM
# Assay type: cell-based
# Set-up: test concentration 10 uM, cell line HepG2-A16-CD81EGFP
# reported_conditions: human, HepG2-A16-CD81EGFP cells; read-out: INHIBITION
Measured cytotoxicity at 10 µM by item
Kindly answer with a numeric value in %, unit omitted.

In the examples that follow, each entry is paired with its recorded cytotoxicity at 10 µM.
COC1CCN(C(=O)c2c(Cl)c3ccccc3n2C)CC1 : 4.39
Cc1ccc(F)c2c1CCCN2Cc1cc(=O)n(C)c(=O)n1C : 13.6
Cc1ccc(S(=O)(=O)Cc2noc([C@@H]3C[C@@H](O)CN3C)n2)cc1 : 0.847
CCNC(=O)[C@@H]1C[C@H](NC(=O)c2cc(CC)n[nH]2)CN1Cc1ccsc1 : -5.92
COc1ccc(Cl)cc1NCc1cc(C)on1 : -7.13

// moving on: another record for cytotoxicity at 10 µM
Lab book: cytotoxicity at 10 µM of CC1CCN(C(=O)C(C)Oc2ccc3c(c2)OCO3)CC1 (configuration not stated) noted as -1.9

---

# assay_protocol: Toxicity liver stage against HepG2, at 10uM
# Type: cell-based
# Set-up: test concentration 10 uM, cell line HepG2-A16-CD81EGFP
# reported_conditions: human, HepG2-A16-CD81EGFP cells; read-out: INHIBITION
result_type: cytotoxicity at 10 µM (%)
Kindly answer with a numeric value in %, unit omitted.

In the examples that follow, each entry is paired with its recorded cytotoxicity at 10 µM.
O=C(CN1CCCS(=O)(=O)CC1)NCc1ccccc1F : 3.76
CSc1ncn(-c2nc(NC3CC3)nc(N(C)C)n2)n1 : -6.75
O=C(Nc1nnc(C(F)F)s1)NC(CCO)c1cccs1 (stereo unspecified) : -3.44

Lab book: cytotoxicity at 10 µM of CSc1ccc(CNC(c2ccc(F)cc2)c2nccn2C)cc1 (stereo unspecified) noted as -10.8

Lab book: cytotoxicity at 10 µM of "O=C1CNc2ncnc(N3CCN(Cc4cccc(F)c4)CC3)c2N1" noted as 7.88

Lab book: cytotoxicity at 10 µM of CNc1cncc(C2CCCN2Cc2ccnc(C)n2)n1 (stereo unspecified) noted as -11.4
